- System: Mycolicibacterium smegmatis
- testMethodNotes: Antibacterial activity against Mycobacterium smegmatis CIP 103599.
- Assay type: functional
propertyLabel: MIC

Example entries and their recorded answers appear below.
compoundStructure	MIC
CCOC(=O)c1cn(Cc2ccccc2)cc1-c1ccc(OC)cc1	> 16 µg/mL
NC(=O)c1c[nH]cc1-c1ccc(Cl)cc1Cl	> 16 µg/mL
CCOC(=O)c1cn(C)cc1-c1ccc(OC)cc1	> 16 µg/mL
O=[N+]([O-])c1c[nH]cc1-c1ccc(Cl)cc1	> 16 µg/mL

IN: Endpoint output: MIC of O=C(O)c1cn(Cc2ccc(Cl)cc2)cc1-c1ccc(Cl)cc1 . Value?
OUT: > 1 µg/mL

IN: Query (compound): CN[C@@H]1[C@H](O[C@H]2[C@H](O[C@H]3[C@H](O)[C@@H](O)[C@H](N=C(N)N)[C@@H](O)[C@@H]3N=C(N)N)O[C@@H](C)[C@]2(O)C=O)O[C@@H](CO)[C@H](O)[C@H]1O ; field requested: MIC
OUT: 8 µg/mL

IN: Look at this compound and give its reported MIC. CCOC(=O)c1c[nH]cc1-c1ccc(Cl)cc1
OUT: > 16 µg/mL

IN: Consider the compound shown here: NC(=O)c1c[nH]cc1-c1ccc(Cl)cc1 What is its recorded MIC?
OUT: > 16 µg/mL

IN: Recorded MIC for O=[N+]([O-])c1c(Cl)cccc1-c1c[nH]cc1Cl , please?
OUT: 16 µg/mL

IN: Quick one: MIC of OCc1cn(Cc2ccccc2Cl)cc1-c1ccc(Cl)cc1 ?
OUT: > 16 µg/mL

IN: Field request: MIC | item: Cn1cc(-c2ccc(Cl)cc2Cl)c([N+](=O)[O-])c1
OUT: > 16 µg/mL

IN: Please report the recorded MIC for O=[N+]([O-])c1c[nH]cc1-c1ccc(Cl)cc1Cl .
OUT: > 16 µg/mL

IN: Requested read-out: MIC. Entry: CCOC(=O)c1cn(Cc2ccc(F)cc2)cc1-c1ccccc1
OUT: > 16 µg/mL

IN: Requested field: MIC. Item: CCOC(=O)c1cn(Cc2ccc(F)cc2)cc1-c1ccc(OC)cc1
OUT: > 16 µg/mL

IN: Any idea what MIC was measured for O=[N+]([O-])c1c[nH]cc1-c1cc(Cl)cc(Cl)c1 ?
OUT: > 16 µg/mL

IN: # MIC lookup, item O=[N+]([O-])c1c[nH]cc1-c1cccc(Cl)c1
OUT: > 16 µg/mL

IN: Tell me the measured MIC of Cn1cc(-c2ccc(Cl)cc2)c([N+](=O)[O-])c1 , please.
OUT: > 16 µg/mL

IN: Data request, read-out MIC, for O=[N+]([O-])c1c[nH]cc1-c1ccccc1Cl
OUT: > 16 µg/mL

IN: Fill blank: measured MIC of the compound Cn1cc(C(=O)O)c(-c2ccc(Cl)cc2)c1 is ____.
OUT: > 16 µg/mL

IN: What value of MIC has been recorded for this entry: NNC(=O)c1c[nH]cc1-c1ccc(Cl)cc1
OUT: > 16 µg/mL

IN: Sample CCOC(=O)c1cn(C)cc1-c1ccc(Cl)cc1 — what was its MIC?
OUT: > 16 µg/mL

IN: May I ask what MIC has been recorded for COc1ccc(-c2c[nH]cc2[N+](=O)[O-])c(Cl)c1 ?
OUT: > 16 µg/mL

IN: What value of MIC has been recorded for this entry: NNC(=O)c1ccncc1
OUT: 64 µg/mL
